B1: TPR 5TU (parent)
chain: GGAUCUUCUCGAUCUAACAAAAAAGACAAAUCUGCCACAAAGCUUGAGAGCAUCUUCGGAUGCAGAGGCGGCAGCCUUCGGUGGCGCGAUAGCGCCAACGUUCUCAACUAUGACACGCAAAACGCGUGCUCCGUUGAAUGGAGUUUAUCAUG

Variants of: B1
assay procedure: polymerase ribozyme fitness, log enrichment relative to wild type (log ratio); higher = more active; in vitro selection for triplet polymerase activity
Variants at the floor of the assay were thinned out.
Consider the following variants and their measured polymerase ribozyme fitness (log ratio) readings.
Answer field: number only, no words.

Below: 3 variants and their reported polymerase ribozyme fitness (log ratio).
U6A U7G U31C G34A A41U ... -3.68
C14G U33C G84U G94A ... -4.16
C85U C116U G141A ... -2.95

Ask: In one line, give reported polymerase ribozyme fitness (log ratio) of the entry A60G C93G .
Result: -3.44

Ask: Hello, please tell me recorded polymerase ribozyme fitness (log ratio) for this one: A60U G84A C116U
Result: -1.05

Ask: Look up and report measured polymerase ribozyme fitness (log ratio) for this entry: C36G A97G
Result: -3.56

Ask: Given the variant C18A U56A C85G C96A , write its reported polymerase ribozyme fitness (log ratio).
Result: -3.54

Ask: Report measured polymerase ribozyme fitness (log ratio); entry is C85A C125A A137G
Result: -2.28

Ask: Read the entry A40C G83A A97G and write its reported polymerase ribozyme fitness (log ratio).
Result: -1.2

Ask: Find the measured polymerase ribozyme fitness (log ratio) of C118U U135C and report it.
Result: -2.19

Ask: Look up and state reported polymerase ribozyme fitness (log ratio) for C5A G136A
Result: 0.816
